# assay-method-text: qHTS assay to identify small molecule agonists of the vitamin D receptor (VDR) signaling pathway - cell viability counter screen (AID 743224); note: nearly all actives have a fitted effect of over 50% in size
# setup-conditions: VDR-bla HEK293T viability, CellTiter-Glo luminescence, 16 h; series mostly up to 62.6 µM
Inconclusive results are not listed. The source made the active and inactive calls. Calls come from the whole dose curve; as a rule, active = well fitted cell-killing curve with a large enough effect in the repeat runs; inconclusive = weak or mixed curves, or effect the other way; inactive = no such curve, though single readings can be large or run the other way.
Labels: active, inactive

• Cc1ccc(O)c(N)c1 = active
• O=S(=O)(O)c1ccc(N=Nc2c(O)ccc3ccccc23)cc1 = inactive
• CN(C)Cc1ccccc1O = inactive
• Nc1nc(-c2ccccc2)cs1 = inactive
• CCC(=O)OC(=O)CC = inactive
• COCCOc1cc2cc(C(=O)NC3CCN(C(C)C)CC3)n(CC(=O)Nc3ccc(Cl)cn3)c2cn1 = inactive
• CN(C)CCN1CCN(c2cccc(Cl)c2)C1=O = inactive
